This collection of values is drawn from a melting point compilation (Tetko et al.; mined from patent text by program, amines drawn as free bases though some values may be those of a salt).

compounds and their reported melting point

Here are 6 compounds together with their reported answers.
COC(=O)C(Oc1ccc(Cl)cc1)c1ccc(Oc2ccc(S(C)(=O)=O)cc2)cc1 (configuration not stated) :: 182 to 183 °C
CC(C)Oc1ccc(CCCOc2cc(CCC(=O)O)n(-c3ccccc3)n2)c(Oc2ncc(C(F)(F)F)cc2Cl)c1 :: 86 to 88 °C
CC(C)[C@H](NC(=O)OCc1ccccn1)C(=O)N[C@@H](Cc1ccccc1)C[C@H](O)[C@H](Cc1ccccc1)NC(=O)OCc1cccnc1 :: 172 to 174 °C
Cc1[nH]cnc1CSCCN=C(N)NCCNC(N)=NCCSCc1nc[nH]c1C :: 201 to 203 °C
CC(=O)Nc1ccc([N+](=O)[O-])c(C=O)c1 :: 131 to 135 °C
CC(=O)OC1Oc2ccc(OS(=O)(=O)N(C)C)cc2C1(C)C (configuration not stated) :: 67 to 68 °C

Data request, read-out melting point, for `CCCCCc1ccc(-c2ccc(CCc3ccc(OCC)cc3)cc2)cc1`
81 °C

# lookup: melting point of `CCNC(=O)c1cc2c(Cl)ccc(-n3c(=O)cc(C(F)(F)F)n(C)c3=O)c2o1`
225 to 226 °C
